system: REH; assay: Cytotoxicity against human REH cells after 48 hrs by MTT assay; format: functional, cell-based
For each of the molecules below, state its pIC50.
Answers are plain numbers, as −log10 of the molar value.

COc1cc(C(=O)/C=C/c2ccc(N(C)C)cc2)cc(OC)c1OC (mixture of isomers) ... 5.98

Kindly give each listed record's pIC50.
1. COc1cc(C(=O)/C=C/c2ccc3ccccc3c2)ccc1O
2. COc1cc(C(=O)/C=C/c2ccc3ccccc3c2)cc(OC)c1OC
3. COc1ccc(/C=C/C(=O)c2ccc3c(c2)OCO3)c(OC)c1OC

1. 5.59
2. 6.14
3. 4.63

* * *

For each of the molecules below, state its IC50.
assay: Inhibition of bovine brain tubulin assembly after 20 mins by spectrophotometric analysis; design: species or system Bos taurus
Answers are plain numbers, in µM.

Kindly give each listed record's IC50.
1. COc1cc(C(=O)/C=C/c2ccc3ccccc3c2)cc(OC)c1OC
2. COc1cc(C(=O)/C=C/c2ccc(N(C)C)cc2)cc(OC)c1OC (mixture of isomers)
3. COc1cc(C(=O)/C=C/c2ccc3ccccc3c2)ccc1O

[2.2, 2.8, 3.6]

* * *

system: HUVEC; assay: Cytotoxicity against human HUVEC cells after 24 hrs by MTT assay; type: cell-based
metric: IC50 (µM)
Numbers only, in µM.

What value of measured IC50 is listed for `COc1cc(C(=O)/C=C/c2ccc3ccccc3c2)cc(OC)c1OC` ?
37
